The reported measurements were obtained from patent US20080108641A1.

biological target: FLT3 (Homo sapiens); construct: purchased Invitrogen, Inc. (SelectScreen platform); assay: SelectScreen kinase assay against FLT3; format: biochemical; conditions: esters of formula (IB); ATP at 100 micromolar
Sequence (P36888 27-993): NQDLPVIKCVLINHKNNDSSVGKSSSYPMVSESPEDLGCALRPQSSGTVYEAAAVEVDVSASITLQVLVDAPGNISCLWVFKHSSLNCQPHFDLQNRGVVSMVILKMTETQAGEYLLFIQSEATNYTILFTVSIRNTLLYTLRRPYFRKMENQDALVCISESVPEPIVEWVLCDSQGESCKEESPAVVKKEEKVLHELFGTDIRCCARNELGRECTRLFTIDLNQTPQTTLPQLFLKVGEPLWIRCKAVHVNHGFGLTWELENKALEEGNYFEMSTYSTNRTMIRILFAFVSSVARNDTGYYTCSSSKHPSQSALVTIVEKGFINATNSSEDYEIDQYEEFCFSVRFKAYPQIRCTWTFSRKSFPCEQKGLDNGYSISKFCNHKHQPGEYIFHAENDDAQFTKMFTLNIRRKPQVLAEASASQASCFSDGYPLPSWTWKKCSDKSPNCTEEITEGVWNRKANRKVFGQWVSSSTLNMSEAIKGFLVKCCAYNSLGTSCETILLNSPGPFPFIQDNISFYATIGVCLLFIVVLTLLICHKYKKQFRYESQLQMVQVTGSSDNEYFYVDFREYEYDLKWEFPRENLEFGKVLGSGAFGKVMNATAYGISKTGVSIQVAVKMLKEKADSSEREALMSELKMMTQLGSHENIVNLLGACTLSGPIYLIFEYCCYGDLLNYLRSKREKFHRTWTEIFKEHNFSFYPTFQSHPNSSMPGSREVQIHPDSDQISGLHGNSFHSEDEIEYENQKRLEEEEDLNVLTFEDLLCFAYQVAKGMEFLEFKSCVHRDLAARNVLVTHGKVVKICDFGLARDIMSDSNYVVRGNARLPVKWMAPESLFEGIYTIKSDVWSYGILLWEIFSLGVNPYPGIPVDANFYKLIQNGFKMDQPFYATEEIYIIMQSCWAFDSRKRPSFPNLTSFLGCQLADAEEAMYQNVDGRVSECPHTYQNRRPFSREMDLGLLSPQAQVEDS
pEC50: −log10 of the molar value.
PROPERTY: pEC50

(I) CN(C)CCNc1ccc2ncn3c4ccc(OC(=O)OC(C)(C)C)cc4c(=O)c1c23
(II) CCN(CC)CCNc1ccc2ncn3c4ccc(OC(C)=O)cc4c(=O)c1c23
In: # return whichever of I and II has the smaller pEC50 To answer, give the label that identifies your chosen option.
Out: II
(II: 6.33, I: 7.02)

* * *

system: T-lymphocyte cells isolated from thymus; experiment: Cell proliferation, T-Cell + Con A ([3H]thymidine incorporation); type: cell-based, balb/c mice; settings: Mus musculus
PROPERTY: IC50 (nM)
// units = nM; emit number, no label

The reported IC50 of the compound CCN(CC)CCNc1ccc2ncn3c4ccc(O)cc4c(=O)c1c23 was 14
